Ref: ChEMBL document CHEMBL1201862

Test system: PC-3
Experiment: NCI tumour cell line growth inhibition, 48 h
Activity calls are given as the source filed them. No stated cut-off is given here; in the data, active = GI50 up to about 1.1 µM and inactive = higher.
quantity name: GI50

Consider the reported GI50 for these compounds:
[[record]]
compound = "CC(=O)O/C(=C1\\C[C@H]2[C@@H]3CC=C4C[C@@H](OC(C)=O)CC[C@]4(C)[C@H]3CC[C@]2(C)C1=O)C(F)(F)F"
readout_value = "13.5 µM (inactive)"

[[record]]
compound = "COC(=O)/C=C/C(=O)Nc1cc(Cl)c(Cl)cc1CC(=O)N(C)[C@H]1CCCC[C@@H]1N1CCCC1"
readout_value = "5.05 µM (inactive)"

[[record]]
compound = "Cc1ccc([N+](=O)[O-])cc1S(=O)(=O)Nc1ccc(C2=NOC(c3cccs3)C2)cc1 (configuration not stated)"
readout_value = "8.93 µM (inactive)"

[[record]]
compound = "Cc1ccc(O)c(-c2cc(-c3cccc(Br)c3)c(C#N)c(N)n2)c1"
readout_value = "17.7 µM (inactive)"


Below are 3 compounds. Give each one its GI50.
1. COc1ccc(C[C@H]2COC(=O)[C@@H]2Cc2ccccc2)cc1OC
2. CCCC(=O)NC1=C(NCC)C(=O)c2ccccc2C1=O
3. O=C(O)c1ccc(Nc2nc3cc(C(F)(F)F)ccc3nc2C(=O)O)cc1

-- reply
1. > 100 µM (inactive)
2. 40.9 µM (inactive)
3. > 100 µM (inactive)

====

Assignment: determine reported GI50 for the given compounds.
System: UACC-257
Experiment: NCI tumour cell line growth inhibition, 48 h
The source made the active and inactive calls. Rule as the data show it: active = GI50 up to about 1.1 µM and inactive = higher.

Below are 3 compounds. Give each one its GI50.
1. CCCC(=O)NC1=C(NCC)C(=O)c2ccccc2C1=O
2. S=C1NC(c2ccccc2)=NC(Cc2ccccc2)(c2ccccc2)N1c1ccccc1 (stereo not drawn)
3. O=C(O)C1CC=CCC1C(=O)Nc1cccc(O)c1 (stereo not drawn)

-- reply
39.4 µM (inactive)
> 100 µM (inactive)
> 100 µM (inactive)

====

Test system: NCI-H23
Experiment: NCI tumour cell line growth inhibition, 48 h
Activity calls are given as the source filed them. Rule as the data show it: active = GI50 up to about 1.1 µM and inactive = higher.
quantity name: GI50

Consider the reported GI50 for these compounds:
[[record]]
line_notation = "CN(C(=O)C1(C(=O)C=[N+]=[N-])CC1)c1ccccc1"
readout_value = "> 100 µM (inactive)"

[[record]]
line_notation = "O=C1c2c(Br)sc(Br)c2C(=O)C1(O)O"
readout_value = "33.4 µM (inactive)"


Below are 4 compounds. Give each one its GI50.
1. C#Cc1cc(-c2nc3ccccc3s2)ccc1N
2. COc1ccc(CN2C(=O)C(=O)N(C)C2=O)c2ccccc12
3. COC(=O)CCCc1c(-c2[nH]c3ccccc3c2CCCC(=O)OC)[nH]c2ccccc12
4. Cc1cc(C)nc(NS(=O)(=O)c2ccc(NN=c3c4ccccc4n(C)c4ccccc34)cc2)n1

-- reply
1: 16.5 µM (inactive); 2: > 10 µM (inactive); 3: > 100 µM (inactive); 4: 25.6 µM (inactive)

====

Tested on: 786-0
Experiment: NCI tumour cell line growth inhibition, 48 h
Activity calls are given as the source filed them. Rule as the data show it: active = GI50 up to about 1.1 µM and inactive = higher.
Returns: one label drawn from active, inactive

Worked cases, answers included:
[[record]]
compound = "COC(OC)C1OC(CO)C(n2cc(C)c(=O)[nH]c2=O)C1O (configuration not stated)"
class = "inactive"

[[record]]
compound = "COc1cc2nc(-c3ccc4ccccc4c3)nc(O)c2cc1OC"
class = "inactive"

[[record]]
compound = "CC(=O)Nc1c(C)ccc2c1C(=O)c1ccccc1C2=O"
class = "inactive"

[[record]]
compound = "O/N=N\\c1nc(-c2cccnc2)nc2ccccc12"
class = "inactive"

[[record]]
compound = "COc1cc(C2C(Cl)C(=O)N2c2c(C)n(C)n(-c3ccccc3)c2=O)ccc1O (configuration not stated)"
class = "inactive"


-- ask Dear all, I need the recorded test outcome for c1ccc2c(c1)Sc1ccccc1N2CCCN1c2ccccc2Sc2ccccc21 , thank you.
-- reply inactive

-- ask Dear all, I need the recorded test outcome for Cc1nc2nnc(C)n2c2c1C(=O)Nc1ccccc1N2 , thank you.
-- reply inactive

-- ask Dear all, I need the recorded test outcome for O=C(O)C(F)(OC(F)(F)C(F)(OC(F)(F)C(F)(F)C(F)(F)F)C(F)(F)F)C(F)(F)F (configuration not stated) , thank you.
-- reply inactive

-- ask Dear all, I need the recorded test outcome for O=S1(=O)OCCOS(=O)(=O)C1(I)I , thank you.
-- reply inactive

-- ask Dear all, I need the recorded test outcome for O=C1c2c(Br)sc(Br)c2C(=O)C1(O)O , thank you.
-- reply inactive

-- ask Dear all, I need the recorded test outcome for O=C(N/C(=C\c1ccc(/C=C(\NC(=O)c2ccccc2)c2nc3cc([N+](=O)[O-])ccc3[nH]2)cc1)c1nc2cc([N+](=O)[O-])ccc2[nH]1)c1ccccc1 , thank you.
-- reply inactive

-- ask Dear all, I need the recorded test outcome for CC(C)C(C/C=C1/CC(CO)(COC(=O)c2ccccc2)OC1=O)C(C)C (configuration not stated) , thank you.
-- reply inactive

-- ask Dear all, I need the recorded test outcome for COc1cccc(NC(=O)/C(CC(=O)CC(c2ccccc2)c2c(O)c3ccccc3oc2=O)=N\NC(C)(C)C)c1OC (configuration not stated) , thank you.
-- reply inactive

-- ask Dear all, I need the recorded test outcome for COc1cc(C2c3cc4c(cc3[C@@H](Nc3cccc(O)c3)C3COC(=O)[C@H]23)OCO4)cc(OC)c1O (some centres not stated) , thank you.
-- reply inactive

-- ask Dear all, I need the recorded test outcome for CCOC(=O)NC(NC(C)CC)(C(F)(F)F)C(F)(F)F (configuration not stated) , thank you.
-- reply inactive

-- ask Dear all, I need the recorded test outcome for O=C1Nc2ccc(S(=O)(=O)O)cc2/C1=C1/Nc2ccc(Br)cc2C1=O , thank you.
-- reply inactive

-- ask Dear all, I need the recorded test outcome for Cc1cc(C)nc(NS(=O)(=O)c2ccc(NN=c3c4ccccc4n(C)c4ccccc34)cc2)n1 , thank you.
-- reply inactive

-- ask Dear all, I need the recorded test outcome for CC[C@@]1(OC(=O)CCC(=O)O)C(=O)OCc2c1cc1n(c2=O)Cc2cc3ccccc3nc2-1 , thank you.
-- reply active

-- ask Dear all, I need the recorded test outcome for O=C1CCC2(c3ccccc3)Nc3ccc(Cl)cc3N12 (configuration not stated) , thank you.
-- reply inactive

-- ask Dear all, I need the recorded test outcome for COc1ccc(/C(C#N)=C2/O/C(=N/N)C(c3ccc(OC)c(OC)c3)C2=O)cc1OC (configuration not stated) , thank you.
-- reply inactive

-- ask Dear all, I need the recorded test outcome for CCOC(=O)NC(=O)c1cn(CCCOC(=O)CCCCCCCCC(=O)OCCCn2cc(C(=O)NC(=O)OCC)c(=O)n(C)c2=O)c(=O)n(C)c1=O , thank you.
-- reply inactive

-- ask Dear all, I need the recorded test outcome for CC(=O)N[C@@H](Cc1ccc(O)cn1)C(=O)NCc1ccc2c(c1)OCO2 , thank you.
-- reply inactive

====

Test system: NCI-H226
Assay: NCI tumour cell line growth inhibition, 48 h
The source made the active and inactive calls. Cut-off read from the data, not from the text of the source: active = GI50 up to about 1.1 µM and inactive = higher.
quantity name: GI50

[[record]]
molecule = "COC(=O)NC(Nc1ccccn1)(C(F)(F)F)C(F)(F)F"
readout_value = "> 100 µM (inactive)"

[[record]]
molecule = "C=C(C)C(=O)OC1CCC2(C)C(CCC3C2CCC2(C)C(c4ccc(=O)oc4)CC4OC432)C1 (configuration not stated)"
readout_value = "9.42 µM (inactive)"

[[record]]
molecule = "Oc1ccc(C2Oc3cc(O)cc4c3C2c2cc(O)cc3c2C(c2cc(O)cc5c2C4C(c2ccc(O)cc2)O5)C(c2ccc(O)cc2)O3)cc1 (configuration not stated)"
readout_value = "6.19 µM (inactive)"

[[record]]
molecule = "COc1cc(C2c3cc4c(cc3[C@@H](Nc3cccc(O)c3)C3COC(=O)[C@H]23)OCO4)cc(OC)c1O (some centres not stated)"
readout_value = "0.771 µM (active)"

[[record]]
molecule = "O=C(NNC(=O)c1ccccc1S)c1ccccc1S [BIS(THIOSALICYL)HYDRAZIDE]"
readout_value = "15.5 µM (inactive)"


Below are 8 molecules. Give each one its GI50.
1. COc1cc(OC)c2c(=O)c(OC)c(-c3ccc4c(c3)OCO4)oc2c1
2. CC(=O)NC1C(OCc2ccccc2)OC(CO)C(O)C1OC(C)C(=O)NC(C(=O)NC(CCC(=O)NCCCCNc1c2ccccc2nc2cccc([N+](=O)[O-])c12)C(N)=O)C(C)C (configuration not stated)
3. NC1=Nc2ccccc2Sc2ccccc21
4. Cn1c(=O)c2c(nc3[nH]c(=O)c(Br)cn32)n(C)c1=O
5. N=C(N)Nc1nc2cc(N)ccc2o1
6. COCn1c(C)c(C)c2c(=O)oc(N(C)C)nc21
7. C/C(=N/NC(N)=S)c1ccc2ccccc2c1
8. Cn1c(=O)c2nc(CCCCC(=O)O)[nH]c2n(C)c1=O

-- reply
46.3 µM (inactive)
3.27 µM (inactive)
24.4 µM (inactive)
> 100 µM (inactive)
> 100 µM (inactive)
> 100 µM (inactive)
39.8 µM (inactive)
> 100 µM (inactive)
